These entries and their values trace back to patent US12065445B2.

tested on: Kuramochi cells labeled with mApple-H2B; experiment: IncuCyte Cell Proliferation Assay; format: cell-based; details: 72 h
Answer each item with its documented IC50.

Prompt line: Please report the recorded IC50 for `C[C@@H](OCC1CCC(F)(F)CC1)[C@H](NC(=O)[C@@H]1CN(C(=O)c2cnn(Cc3ccc(F)cc3)c2)CC12CN(C(=O)[C@H]1CC1(C)C)C2)C(N)=O` .
Response line: 0.5 to 5 µM

Prompt line: Try the compound `C[C@@H](OCC1CCCCC1)[C@H](NC(=O)[C@@H]1CN(C(=O)c2cnn(CC(F)(F)F)c2)CC12CN(C(=O)[C@H]1CC1(C)C)C2)C(=O)N1CCCCC1`
Response line: 0.5 to 5 µM

Prompt line: Likewise for CC1(C)C[C@@H]1C(=O)N1CC2(CN(C(=O)c3cncs3)C[C@H]2C(=O)NC(CO)c2cccc(C3CCC(F)(F)CC3)n2)C1 (stereo partly drawn) ?
Response line: > 20 µM

Prompt line: Then what about the compound C[C@@H](OCC1CCCCC1)[C@H](NC(=O)C1CN(C(=O)c2cncs2)CC12CN(C(=O)[C@H]1CC1(C)C)C2)C(=O)N1CCC[C@H](CO)C1 (stereo partly drawn) ?
Response line: ≤ 0.5 µM

Prompt line: Also C[C@@H](OCC1CCCCC1)[C@H](NC(=O)C1CN(C(=O)C2CCC(=O)NC2)CC12CN(C(=O)[C@H]1CC1(C)C)C2)C(=O)N1CCCCC1 (stereo partly drawn) ?
Response line: > 20 µM

Prompt line: How about this compound: `C[C@@H](OCC1CCCCC1)[C@@H](CO)NC(=O)[C@@H]1CN(C(=O)c2cncs2)CC12CN(C(=O)[C@H]1CC1(C)C)C2`
Response line: 0.5 to 5 µM

Prompt line: And the next one, COC[C@H]1CCCN(C(=O)[C@@H](NC(=O)[C@H]2CN(C(=O)c3cncs3)CC23CN(C(=O)[C@H]2CC2(C)C)C3)[C@@H](C)OCC2CCCCC2)C1 [I-196B] ?
Response line: 0.5 to 5 µM

Prompt line: Repeat with C[C@@H](OCC1CCCCC1)[C@H](NC(=O)C1CN(C(=O)c2cnn(Cc3ccccc3)c2)CC12CN(C(=O)[C@H]1CC1(C)C)C2)C(=O)N1CCOCC1 (stereo partly drawn) [I-152 mixture]
Response line: ≤ 0.5 µM

Prompt line: How about CNC(=O)C(NC(=O)[C@@H]1CN(C(=O)c2cncs2)CC12CN(C(=O)[C@H]1CC1(C)C)C2)c1cccc(N2CC3(CC(C(F)(F)F)C3)C2)n1 (stereo partly drawn) ?
Response line: > 20 µM

Prompt line: Do the same for `C[C@@H](OCC1CCC(F)(F)CC1)[C@H](NC(=O)[C@@H]1CN(C(=O)c2cncs2)CC12CN(C(=O)[C@H]1CC1(C)C)C2)C(C)(C)O` please
Response line: 0.5 to 5 µM

Prompt line: Queued: `C[C@@H](OC1(C2CCCCC2)CC1)[C@H](NC(=O)[C@@H]1CN(C(=O)c2cncs2)CC12CN(C(=O)[C@H]1CC1(C)C)C2)C(=O)N1CCCCC1`
Response line: 5 to 20 µM

Prompt line: Next: `COC[C@H]1CCCN(C(=O)CNC(=O)[C@@H]2CN(C(=O)c3cncs3)CC23CN(C(=O)[C@H]2CC2(C)C)C3)C1`
Response line: > 20 µM

###

biological target: CDK2/Cyclin E1 (Homo sapiens, UniProt P24941); assay: CDK2/Cyclin E1 Caliper Assay (LabChip EZ Reader mobility shift); conditions: read-out: Caliper Assay (CDK2/CCNE1): IC50
Field: IC50. Provide a value for each of the molecules that follow.

Prompt line: Recorded IC50 for CNC(=O)[C@@H](NC(=O)[C@H]1CN(CC2CCOCC2)CC12CN(C(=O)[C@H]1CC1(C)C)C2)[C@@H](C)OCc1ccccc1 [I-68B] with CDK2/Cyclin E1 (Homo sapiens, UniProt P24941), please?
Response line: > 10000 nM

Prompt line: Please answer likewise for C[C@@H](OCC1CCCCC1)[C@H](NC(=O)[C@H]1CN(C(=O)c2cnn(Cc3ccccc3)c2)CC12CN(C(=O)[C@H]1CC1(C)C)C2)C(=O)N1CCC[C@H](N)C1 [I-150B]
Response line: 1000 to 10000 nM

Prompt line: Next molecule: C[C@@H](OCC1CCC(F)(F)CC1)[C@H](NC(=O)C1CN(C(=O)c2cnn(Cc3ccc(F)cc3)c2)CC12CN(C(=O)C1(C(F)(F)F)CC1)C2)C(=O)N1CCC(F)(F)CC1 (single isomer, unassigned) [I-190B]
Response line: 100 to 1000 nM

Prompt line: Same again, this time with C[C@@H](OCC1CCCCC1)[C@H](NC(=O)[C@H]1CN(C(=O)c2cncs2)CC12CN(C(=O)[C@H]1CC1(C)C)C2)C(=O)N1CCC(F)(F)CC1 [I-192B]
Response line: 1000 to 10000 nM

Prompt line: Try the molecule C[C@@H]1C[C@H](C)CN(C(=O)[C@@H](NC(=O)[C@@H]2CN(C(=O)c3cn[nH]c3)CC23CN(C(=O)[C@H]2CC2(C)C)C3)[C@@H](C)OCC2CCCCC2)C1 [I-173A]
Response line: ≤ 10 nM

###

tested on: Kuramochi cells labeled with mApple-H2B; experiment: IncuCyte Cell Proliferation Assay; type: cell-based; details: 72 h
PROPERTY_LABEL: IC50

Prompt line: Form field: IC50 recorded for C[C@@H](OCC12CCC(CC1)OC2)[C@H](NC(=O)[C@@H]1CN(C(=O)c2cncs2)CC12CN(C(=O)[C@H]1CC1(C)C)C2)C(=O)N1CCC(C(F)(F)F)CC1 [I-454] with Kuramochi cells labeled with mApple-H2B (enter value)
Response line: 0.5 to 5 µM

Prompt line: What do we get for CNC(=O)[C@@H](NC(=O)[C@@H]1CN(C(=O)c2sc(C(C)C)nc2C)CC12CN(C(=O)[C@H]1CC1(C)C)C2)[C@@H](C)OCC1CCCCC1 [I-227A] ?
Response line: > 20 µM

Prompt line: What about this compound? CC1(C)C[C@@H]1C(=O)N1CC2(CN(C(=O)c3cnn(Cc4ccccc4)c3)C[C@H]2C(=O)NCc2nnc[nH]2)C1 [I-191A]
Response line: > 20 µM

Prompt line: Now the compound CC1(C)C[C@@H]1C(=O)N1CC2(CN(C(=O)c3cncs3)C[C@H]2C(=O)NC(c2cccc(C3CCCCC3)n2)C2COCCO2)C1 (stereo partly drawn) [I-496]
Response line: 5 to 20 µM

Prompt line: Also C[C@@H](OCC1CCC(F)(F)CC1)[C@H](NC(=O)[C@@H]1CN(C(=O)c2cn[nH]c2)CC12CN(C(=O)[C@H]1CC1(C)C)C2)C(=O)N1CCC(F)(F)CC1 [I-228A] ?
Response line: > 20 µM

Prompt line: Field entry: CNC(=O)[C@@H](NC(=O)[C@@H]1CN(C(=O)c2cnn(Cc3ccccc3)c2)CC12CN(C(=O)[C@H]1CC1(C)C)C2)[C@@H](C)N(CC1CCCCC1)C(C)=O [I-273]
Response line: > 20 µM

###

tested on: Kuramochi cells labeled with mApple-H2B; experiment: IncuCyte Cell Proliferation Assay; format: cell-based; settings: 72 h
pIC50: −log10 of the molar value.
PROPERTY_LABEL: pIC50

Prompt line: Given the entry C[C@@H](OCC1CCCCC1)[C@H](NC(=O)[C@@H]1CN(C(=O)c2cn[nH]c2)CC12CN(C(=O)[C@H]1CC1(C)C)C2)C(=O)N1CCCCC1 [I-151A] , report its measured pIC50.
Response line: 5.30 to 6.30

Prompt line: # repeat for `C[C@@H](OCC1CCC(F)(F)CC1)[C@H](NC(=O)[C@@H]1CN(C(=O)c2cncs2)CC12CN(C(=O)[C@H]1CC1(C)C)C2)C(=O)N1CCC(C)(C)CC1`
Response line: ≥ 6.30

Prompt line: One more molecule: C[C@@H](OCC1CCCCC1)[C@H](NC(=O)[C@@H]1CN(C(=O)c2cnn(Cc3ccccc3)c2)CC12CN(C(=O)[C@H]1CC1(C)C)C2)C(=O)N1CC(C)(C)C1 [I-153A]
Response line: ≥ 6.30

Prompt line: Also `COC[C@H]1CCCN(C(=O)[C@@H](NC(=O)[C@@H]2CN(C(=O)c3cncs3)CC23CN(C(=O)C(C)(C)C2CC2)C3)[C@@H](C)OC[C@H]2CC[C@H](O)CC2)C1` , if possible.
Response line: < 4.70

Prompt line: Follow-up item: `CC1(C)C[C@@H]1C(=O)N1CC2(CN(C(=O)c3cnn(Cc4ccccc4)c3)C[C@H]2C(=O)NCc2cccnn2)C1`
Response line: < 4.70

Prompt line: Now this one: `C[C@@H](OCC12CCC(CC1)OC2)[C@H](NC(=O)[C@@H]1CN(C(=O)c2cncs2)CC12CN(C(=O)[C@H]1CC1(C)C)C2)C(=O)N1CCC[C@H](COC(F)F)C1`
Response line: 5.30 to 6.30

Prompt line: What do you get for CNC(=O)[C@@H](NC(=O)[C@@H]1CN(C(=O)c2cnc(C(C)(C)C)s2)CC12CN(C(=O)[C@H]1CC1(C)C)C2)[C@@H](C)OCC1CCCCC1 [I-229A] ?
Response line: 5.30 to 6.30

Prompt line: Would you mind doing C[C@@H](OCC1CCCCC1)[C@H](NC(=O)C1CN(C(=O)c2cnn(Cc3ccccc3)c2)CC12CN(C(=O)[C@H]1CC1(C)C)C2)C(=O)N1CCCC(CO)C1 (stereo partly drawn) as well?
Response line: ≥ 6.30

Prompt line: Now try `C[C@@H](OCC1CCC(F)(F)CC1)[C@H](NC(=O)[C@@H]1CN(C(=O)c2cn[nH]c2)CC12CN(C(=O)C1(C(F)(F)F)CC1)C2)C(=O)N1CCOCC1` .
Response line: < 4.70

Prompt line: Please give the result for `C[C@@H](OCC1CCOCC1)[C@@H](COC(F)F)NC(=O)[C@@H]1CN(C(=O)c2cncs2)CC12CN(C(=O)[C@H]1CC1(C)C)C2` too.
Response line: < 4.70

Prompt line: Same thing, different molecule: CNC(=O)C(NC(=O)[C@@H]1CN(C(=O)c2cncs2)CC12CN(C(=O)[C@H]1CC1(C)C)C2)c1cccc(N2CCCCC2)n1 (stereo partly drawn)
Response line: < 4.70

Prompt line: Repeat for the following molecule: `C[C@@H](OCC1CCCCC1)[C@H](NC(=O)[C@@H]1CN(C(=O)c2cncs2)CC12CN(C(=O)[C@H]1CC1(C)C)C2)C(=O)N1CCNCC1`
Response line: 5.30 to 6.30
